Target: T1, recombinant cyno monkey PCSK9 protein (cyno monkey, UniProt A8T666 31-692 (rhesus entry), limits assumed, biotinylated in the ELISA assays)
T1 construct: also called cyno PCSK9; Cyno Monkey PCSK9-His
T1 sequence (A8T666 31-692 limits assumed): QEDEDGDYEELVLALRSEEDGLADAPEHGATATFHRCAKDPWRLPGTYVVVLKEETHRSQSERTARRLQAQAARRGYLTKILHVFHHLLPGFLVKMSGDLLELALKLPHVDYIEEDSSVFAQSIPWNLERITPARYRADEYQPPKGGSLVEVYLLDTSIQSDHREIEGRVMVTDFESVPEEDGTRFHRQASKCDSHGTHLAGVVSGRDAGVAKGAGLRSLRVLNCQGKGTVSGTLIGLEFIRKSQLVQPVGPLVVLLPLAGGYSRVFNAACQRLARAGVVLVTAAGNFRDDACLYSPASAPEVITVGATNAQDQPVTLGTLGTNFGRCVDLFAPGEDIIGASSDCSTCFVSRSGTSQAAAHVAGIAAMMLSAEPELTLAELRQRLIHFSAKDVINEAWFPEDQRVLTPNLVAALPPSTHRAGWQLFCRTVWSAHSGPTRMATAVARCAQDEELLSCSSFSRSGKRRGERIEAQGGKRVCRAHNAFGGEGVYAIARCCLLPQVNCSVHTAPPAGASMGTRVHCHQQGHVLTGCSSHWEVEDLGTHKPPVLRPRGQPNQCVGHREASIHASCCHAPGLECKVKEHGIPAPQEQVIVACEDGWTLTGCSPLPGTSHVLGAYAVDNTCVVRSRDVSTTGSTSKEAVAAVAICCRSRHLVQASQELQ
Assay: ELISA; antibody 0.67 nM
endpoint-name: OD450 nm (OD450 nm)
Give the number; OD450 nm is assumed, so skip it.

Entry 74C10A8, fully human anti-PCSK9 antibody (antibody, human IgG1, V domains shown) VH: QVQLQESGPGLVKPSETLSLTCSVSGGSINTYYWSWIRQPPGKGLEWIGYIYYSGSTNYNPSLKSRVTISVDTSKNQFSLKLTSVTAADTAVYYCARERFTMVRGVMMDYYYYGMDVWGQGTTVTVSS VL: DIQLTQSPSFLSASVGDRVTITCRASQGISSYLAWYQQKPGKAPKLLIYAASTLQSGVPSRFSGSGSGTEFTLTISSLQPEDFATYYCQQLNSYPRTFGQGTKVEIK has what OD450 nm?
2.1

These entries and their values trace back to patent US20180355059A1.
